Test: Cytotoxicity against human HL-7702 cells assessed as viable cells at 10 uM measured after 24 hrs by MTT assay
Assay type: toxicity, cell-based
Conditions: l02, 24 h
Quantity Kind: Activity

Solved cases (8 shown):
>>> result("COc1ccc(/C=C/c2cc(OC)cc(OC)c2/C=C/C(=O)/C=C/c2ccc(C)cc2C)cc1")
"Non-Toxic"
>>> result("COc1ccc(/C=C/c2cc(OC)cc(OC)c2/C=C/C(=O)/C=C/c2ccc(C(F)(F)F)cc2)cc1")
"Non-Toxic"
>>> result("COc1ccc(/C=C/c2cc(OC)cc(OC)c2/C=C/C(=O)/C=C/c2ccccc2C(F)(F)F)cc1")
"Non-Toxic"
>>> result("COc1ccc(/C=C/c2cc(OC)cc(OC)c2/C=C/C(=O)/C=C/c2cccc(C(F)(F)F)c2)cc1")
"Non-Toxic"
>>> result("COc1ccc(/C=C/c2cc(OC)cc(OC)c2/C=C/C(=O)/C=C/c2ccccc2Cl)cc1")
"Non-Toxic"
>>> result("COc1ccc(/C=C/c2cc(OC)cc(OC)c2/C=C/C(=O)/C=C/c2ccc(O)c(Br)c2)cc1")
"Non-Toxic"
>>> result("CCN(CC)c1ccc(/C=C/C(=O)/C=C/c2c(/C=C/c3ccc(OC)cc3)cc(OC)cc2OC)cc1")
"Non-Toxic"
>>> result("COc1ccc(/C=C/c2cc(OC)cc(OC)c2/C=C/C(=O)/C=C/c2ccccc2Br)cc1")
"Non-Toxic"

Q: Look up Activity for this compound: COc1ccc(/C=C/c2cc(OC)cc(OC)c2/C=C/C(=O)/C=C/c2ccccc2)cc1
A: Non-Toxic
